- target-system: T1, RhlB (Escherichia coli, UniProt P0A8J8 1-421)
- T1 sequence: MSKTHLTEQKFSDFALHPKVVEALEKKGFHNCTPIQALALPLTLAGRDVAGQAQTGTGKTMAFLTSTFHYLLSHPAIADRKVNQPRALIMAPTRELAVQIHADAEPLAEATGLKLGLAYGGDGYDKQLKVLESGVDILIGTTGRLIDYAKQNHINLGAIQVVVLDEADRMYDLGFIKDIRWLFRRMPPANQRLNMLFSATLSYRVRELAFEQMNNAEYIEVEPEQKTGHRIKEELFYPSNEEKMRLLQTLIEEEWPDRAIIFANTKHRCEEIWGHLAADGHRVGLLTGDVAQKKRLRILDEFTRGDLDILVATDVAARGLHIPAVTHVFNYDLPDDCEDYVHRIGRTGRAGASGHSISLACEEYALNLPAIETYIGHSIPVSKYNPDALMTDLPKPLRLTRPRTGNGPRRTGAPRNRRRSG
- test-protocol: NMR (1H imino titration); no ATP; 4.5 mM Mg2+; NMR: 150 mM KCl, 25 mM Tris/HCl, 5 mM DTT, 4.5 mM MgCl2, pH 8.3, 288 K, 100 µM RNA; EMSA: 150 mM NaCl, 25 mM Tris, 1.5 mM MgCl2, 5 mM DTT, 10% glycerol, pH 8.3, 4 C, 1.5 µM RNA
- measurement-context: protein: recombinant; tags: C-terminal TEV site (ENLYFQG) + 6xHis; His-tag removed by TEV, site remnant left; label: none; blunt
Catalogue of binders with associated pKd
Please treat pKd as minus the base-10 logarithm of the molar concentration.

In plain terms, Blunt duplex 13 nt (dsRNA) RNA 1: UAGUAACUAAAAC RNA 2: GUUUUAGUUACUA has a documented pKd of 3.81

In plain terms, Blunt duplex 21 nt (dsRNA) RNA 1: UAGUAACUAAAACAUUAAAUU RNA 2: AAUUUAAUGUUUUAGUUACUA has a documented pKd of 3.79
